Tested on: MDR1
Test: Efflux ratio of apparent permeability across basolateral to apical side over apical to basolateral side in MDCK-MDR1 cells at 1 to 10 uM measured after 1 hrs by LC/MS/MS analysis
Assay type: ADME, cell-based, Canis lupus familiaris
Conditions: dog, dose 1-10 µM

[
  {
    "Molecular String": "COc1cc(C)[nH]c(=O)c1CN1CCN(C)c2c(Cl)cc(-c3c(C)noc3C)c(Cl)c2C1=O",
    "Assayed Target": "MDR1",
    "efflux ratio at 1 h, up to 10 µM": "> 49"
  },
  {
    "Molecular String": "Cc1noc(C)c1-c1cc(Cl)c2c(c1Cl)C(=O)N(Cc1c(C(F)(F)F)cc(C)n(C)c1=O)CC2",
    "Assayed Target": "MDR1",
    "efflux ratio at 1 h, up to 10 µM": 2.4
  },
  {
    "Molecular String": "COc1cc(C)[nH]c(=O)c1CN1CCNc2c(Cl)cc(-c3c(C)noc3C)c(Cl)c2C1=O",
    "Assayed Target": "MDR1",
    "efflux ratio at 1 h, up to 10 µM": "> 51"
  }
]

----------
Biological target: Histone-lysine N-methyltransferase EZH2 (Homo sapiens)
Assay: Inhibition of EZH2 (unknown origin) using 3H-SAM as substrate incubated for 1 hour by filter binding method
Measure Name: log10 IC50 (log10 of the value in nM)

[
  {
    "Molecular String": "CCN1CCN(Cc2c(OC)cc(C)[nH]c2=O)C(=O)c2c(Cl)c(-c3c(C)noc3C)cc(Cl)c21",
    "log10 IC50": 1.52
  },
  {
    "Molecular String": "COc1cc(C)[nH]c(=O)c1CN1CCN(C)c2c(Cl)cc(-c3c(C)noc3C)c(Cl)c2C1=O",
    "log10 IC50": -0.06
  },
  {
    "Molecular String": "CCc1cc(C)[nH]c(=O)c1CN1CCN(C)c2c(Cl)cc(-c3c(C)noc3C)c(Cl)c2C1=O",
    "log10 IC50": 0.26
  },
  {
    "Molecular String": "Cc1noc(C)c1-c1cc(Cl)c2c(c1Cl)C(=O)N(Cc1c(C3CC3)cc(C)n(C)c1=O)CC2",
    "log10 IC50": 2.48
  },
  {
    "Molecular String": "COc1cc(C)n(C)c(=O)c1CN1CCN(C)c2c(Cl)cc(-c3c(C)noc3C)c(Cl)c2C1=O",
    "log10 IC50": 2.73
  },
  {
    "Molecular String": "CSc1cc(C)n(C)c(=O)c1CN1CCNc2c(Cl)cc(-c3c(C)noc3C)c(Cl)c2C1=O",
    "log10 IC50": 0.32
  },
  {
    "Molecular String": "COc1cc(C)[nH]c(=O)c1CN1CCN(C)c2c(Cl)cc(-c3ccc(N4CCOCC4)cc3)c(Cl)c2C1=O",
    "log10 IC50": 1.81
  }
]

----------
Below, each entry is listed alongside its reported pIC50.
Target: Histone-lysine N-methyltransferase EZH2 (Homo sapiens, UniProt Q15910)
Sequence (Q15910 whole entry): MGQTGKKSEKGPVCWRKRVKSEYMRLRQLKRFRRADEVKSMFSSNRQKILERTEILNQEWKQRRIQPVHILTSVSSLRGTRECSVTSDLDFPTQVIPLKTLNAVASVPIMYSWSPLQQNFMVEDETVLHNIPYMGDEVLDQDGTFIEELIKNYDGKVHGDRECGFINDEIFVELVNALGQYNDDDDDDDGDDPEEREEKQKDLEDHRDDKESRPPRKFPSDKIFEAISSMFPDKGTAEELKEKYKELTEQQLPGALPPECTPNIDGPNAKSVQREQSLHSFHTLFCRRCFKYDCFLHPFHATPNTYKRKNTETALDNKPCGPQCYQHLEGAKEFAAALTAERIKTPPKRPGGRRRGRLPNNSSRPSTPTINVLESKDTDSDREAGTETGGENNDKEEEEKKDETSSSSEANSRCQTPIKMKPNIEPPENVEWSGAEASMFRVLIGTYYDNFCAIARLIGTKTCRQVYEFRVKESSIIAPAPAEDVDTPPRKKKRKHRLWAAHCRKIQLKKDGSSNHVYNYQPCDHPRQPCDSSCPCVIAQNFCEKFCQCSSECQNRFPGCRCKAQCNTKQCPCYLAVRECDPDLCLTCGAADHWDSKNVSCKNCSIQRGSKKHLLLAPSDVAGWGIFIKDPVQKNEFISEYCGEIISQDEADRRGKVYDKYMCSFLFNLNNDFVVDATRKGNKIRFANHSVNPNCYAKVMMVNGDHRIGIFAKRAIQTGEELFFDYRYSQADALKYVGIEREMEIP
Assay: Inhibition of EZH2 (unknown origin) using 3H-SAM as substrate incubated for 1 hour by filter binding method
pIC50: −log10 of the molar value.
Measure Name: pIC50

[
  {
    "Compound": "COc1cc(C)[nH]c(=O)c1CN1CCN(C)c2c(Cl)cc(OC(C)C)c(Cl)c2C1=O",
    "Readout Value": 7.48
  },
  {
    "Compound": "COc1cc(C)[nH]c(=O)c1CN1CCN(C)c2c(Cl)cc(-c3ccc(CN4CCOCC4)cc3)c(Cl)c2C1=O",
    "Readout Value": 6.66
  },
  {
    "Compound": "COc1cc(C)[nH]c(=O)c1CN1CCN(C)c2c(Cl)cc(C(C)C3CCOCC3)c(Cl)c2C1=O (centres undefined)",
    "Readout Value": 8.70
  },
  {
    "Compound": "CCc1cc(C)n(C)c(=O)c1CN1CCc2c(Cl)cc(-c3c(C)noc3C)c(Cl)c2C1=O",
    "Readout Value": 7.09
  },
  {
    "Compound": "Cc1cc(C)c(CN2CCc3c(Cl)cc(-c4c(C)noc4C)c(Cl)c3C2=O)c(=O)[nH]1",
    "Readout Value": 9.00
  },
  {
    "Compound": "CSc1cc(C)[nH]c(=O)c1CN1CCN(C)c2c(Cl)cc(-c3c(C)noc3C)c(Cl)c2C1=O",
    "Readout Value": 9.05
  },
  {
    "Compound": "COc1cc(C)n(C)c(=O)c1CN1CCc2c(Cl)cc(-c3c(C)noc3C)c(Cl)c2C1=O",
    "Readout Value": 7.94
  },
  {
    "Compound": "CSc1cc(C)n(C)c(=O)c1CN1CCc2c(Cl)cc(-c3c(C)noc3C)c(Cl)c2C1=O",
    "Readout Value": 8.89
  },
  {
    "Compound": "CCN(c1cc(Cl)c2c(c1Cl)C(=O)N(Cc1c(OC)cc(C)[nH]c1=O)CCN2C)C1CCOCC1",
    "Readout Value": 8.72
  }
]

----------
Tested on: MDR1
Experiment: Efflux ratio of apparent permeability across basolateral to apical side over apical to basolateral side in MDCK-MDR1 cells at 1 to 10 uM measured after 1 hrs by LC/MS/MS analysis
Assay type: ADME, cell-based, Canis lupus familiaris
Settings: dog, dose 1-10 µM
Measure Name: efflux ratio at 1 h, up to 10 µM

[
  {
    "Molecular String": "Cc1cc(C)c(CN2CCc3c(Cl)cc(-c4c(C)noc4C)c(Cl)c3C2=O)c(=O)[nH]1",
    "Measure Name": "efflux ratio at 1 h, up to 10 µM",
    "Relation Qualifier": "=",
    "Readout Value": 4.8
  },
  {
    "Molecular String": "CSc1cc(C)n(C)c(=O)c1CN1CCc2c(Cl)cc(-c3c(C)noc3C)c(Cl)c2C1=O",
    "Measure Name": "efflux ratio at 1 h, up to 10 µM",
    "Relation Qualifier": "=",
    "Readout Value": 110
  },
  {
    "Molecular String": "CCc1cc(C)n(C)c(=O)c1CN1CCc2c(Cl)cc(-c3c(C)noc3C)c(Cl)c2C1=O",
    "Measure Name": "efflux ratio at 1 h, up to 10 µM",
    "Relation Qualifier": "=",
    "Readout Value": 0.72
  },
  {
    "Molecular String": "CSc1cc(C)n(C)c(=O)c1CN1CCN(C)c2c(Cl)cc(-c3c(C)noc3C)c(Cl)c2C1=O",
    "Measure Name": "efflux ratio at 1 h, up to 10 µM",
    "Relation Qualifier": "=",
    "Readout Value": 110
  },
  {
    "Molecular String": "Cc1noc(C)c1-c1cc(Cl)c2c(c1Cl)C(=O)N(Cc1c(C3CC3)cc(C)n(C)c1=O)CC2",
    "Measure Name": "efflux ratio at 1 h, up to 10 µM",
    "Relation Qualifier": "=",
    "Readout Value": 1.5
  },
  {
    "Molecular String": "CSc1cc(C)[nH]c(=O)c1CN1CCN(C)c2c(Cl)cc(-c3c(C)noc3C)c(Cl)c2C1=O",
    "Measure Name": "efflux ratio at 1 h, up to 10 µM",
    "Relation Qualifier": ">",
    "Readout Value": 99
  },
  {
    "Molecular String": "COc1cc(C)n(C)c(=O)c1CN1CCc2c(Cl)cc(-c3c(C)noc3C)c(Cl)c2C1=O",
    "Measure Name": "efflux ratio at 1 h, up to 10 µM",
    "Relation Qualifier": "=",
    "Readout Value": 23
  },
  {
    "Molecular String": "CCc1cc(C)[nH]c(=O)c1CN1CCN(C)c2c(Cl)cc(-c3c(C)noc3C)c(Cl)c2C1=O",
    "Measure Name": "efflux ratio at 1 h, up to 10 µM",
    "Relation Qualifier": ">",
    "Readout Value": 170
  },
  {
    "Molecular String": "CSc1cc(C)n(C)c(=O)c1CN1CCNc2c(Cl)cc(-c3c(C)noc3C)c(Cl)c2C1=O",
    "Measure Name": "efflux ratio at 1 h, up to 10 µM",
    "Relation Qualifier": "=",
    "Readout Value": 220
  }
]

----------
Test: Apparent permeability across apical to basolateral side in MDCK-MDR1 cells at 1 to 10 uM measured after 1 hrs by LC/MS/MS analysis
Type: ADME, cell-based, Canis lupus familiaris
Conditions: dog, dose 1-10 µM

[
  {
    "Molecular String": "Cc1cc(C)n(C)c(=O)c1CN1CCc2c(Cl)cc(-c3c(C)noc3C)c(Cl)c2C1=O",
    "Papp A→B at 1 h, up to 10 µM": "10.5 ×10⁻⁶ cm/s"
  },
  {
    "Molecular String": "CSc1cc(C)n(C)c(=O)c1CN1CCN(C)c2c(Cl)cc(-c3c(C)noc3C)c(Cl)c2C1=O",
    "Papp A→B at 1 h, up to 10 µM": "0.2 ×10⁻⁶ cm/s"
  },
  {
    "Molecular String": "Cc1noc(C)c1-c1cc(Cl)c2c(c1Cl)C(=O)N(Cc1c(C3CC3)cc(C)n(C)c1=O)CC2",
    "Papp A→B at 1 h, up to 10 µM": "5.2 ×10⁻⁶ cm/s"
  },
  {
    "Molecular String": "CCc1cc(C)[nH]c(=O)c1CN1CCN(C)c2c(Cl)cc(-c3c(C)noc3C)c(Cl)c2C1=O",
    "Papp A→B at 1 h, up to 10 µM": "< 0.1 ×10⁻⁶ cm/s"
  },
  {
    "Molecular String": "COc1cc(C)[nH]c(=O)c1CN1CCN(C)c2c(Cl)cc(-c3c(C)noc3C)c(Cl)c2C1=O",
    "Papp A→B at 1 h, up to 10 µM": "< 0.1 ×10⁻⁶ cm/s"
  }
]

Entry source: ChEMBL document CHEMBL5046305
